Listing of entries alongside the reported pIC50.
# Target Of Assay: UniProtKB P47989
# Sequence (P47989 whole entry, species assumed): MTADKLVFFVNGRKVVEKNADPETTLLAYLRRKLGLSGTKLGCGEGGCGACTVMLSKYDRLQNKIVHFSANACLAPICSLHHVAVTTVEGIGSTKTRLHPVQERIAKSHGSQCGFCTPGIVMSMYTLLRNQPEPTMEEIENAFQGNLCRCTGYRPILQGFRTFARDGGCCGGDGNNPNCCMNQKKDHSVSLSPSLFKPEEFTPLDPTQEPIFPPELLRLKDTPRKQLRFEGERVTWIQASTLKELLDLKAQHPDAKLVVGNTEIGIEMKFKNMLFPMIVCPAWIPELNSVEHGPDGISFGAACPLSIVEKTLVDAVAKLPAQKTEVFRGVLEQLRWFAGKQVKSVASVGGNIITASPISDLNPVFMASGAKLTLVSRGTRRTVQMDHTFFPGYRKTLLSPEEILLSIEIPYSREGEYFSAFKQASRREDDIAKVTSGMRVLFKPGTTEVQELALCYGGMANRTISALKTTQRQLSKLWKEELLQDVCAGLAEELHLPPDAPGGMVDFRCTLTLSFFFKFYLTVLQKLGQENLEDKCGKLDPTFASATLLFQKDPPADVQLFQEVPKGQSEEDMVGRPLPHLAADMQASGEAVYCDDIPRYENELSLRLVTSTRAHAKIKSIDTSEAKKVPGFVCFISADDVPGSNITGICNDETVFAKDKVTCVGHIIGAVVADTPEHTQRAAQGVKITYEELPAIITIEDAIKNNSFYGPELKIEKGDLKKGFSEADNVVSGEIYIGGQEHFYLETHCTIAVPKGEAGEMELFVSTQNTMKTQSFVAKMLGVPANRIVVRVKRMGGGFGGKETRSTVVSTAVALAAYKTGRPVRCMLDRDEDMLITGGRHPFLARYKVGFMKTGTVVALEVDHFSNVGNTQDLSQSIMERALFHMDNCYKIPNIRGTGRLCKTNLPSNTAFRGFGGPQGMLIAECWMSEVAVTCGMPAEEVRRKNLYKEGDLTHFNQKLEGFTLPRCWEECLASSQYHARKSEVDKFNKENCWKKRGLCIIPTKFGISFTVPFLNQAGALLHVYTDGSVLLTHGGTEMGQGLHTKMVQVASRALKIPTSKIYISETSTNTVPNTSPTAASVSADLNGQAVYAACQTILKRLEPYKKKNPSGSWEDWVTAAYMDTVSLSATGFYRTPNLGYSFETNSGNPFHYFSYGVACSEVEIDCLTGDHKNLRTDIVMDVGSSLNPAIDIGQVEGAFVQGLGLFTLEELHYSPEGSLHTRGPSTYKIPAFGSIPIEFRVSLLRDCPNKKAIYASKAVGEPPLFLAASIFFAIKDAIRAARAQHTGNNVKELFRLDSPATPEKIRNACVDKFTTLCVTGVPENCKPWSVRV
# Assay: In vitro inhibition of xanthine oxidase
# Assay type: biochemical
pIC50: −log10 of the molar value.

{"Compound": "Cc1ccc2nc(SCC(=O)Nc3c(C)cccc3C)n(-c3ccccc3)c(=O)c2c1 [Compound 15d]", "Target Of Assay": "UniProtKB P47989", "pIC50": 3.78}
{"Compound": "Cc1nc2ccccc2c(=O)n1/N=C/c1ccc2ccccc2c1 [Compound 8a]", "Target Of Assay": "UniProtKB P47989", "pIC50": 3.86}
{"Compound": "COc1cc(-n2c(C)nc3ccc(F)cc3c2=O)cc(OC)c1OC [Compound 5b]", "Target Of Assay": "UniProtKB P47989", "pIC50": 4.80}
{"Compound": "COc1cccc(/C=N/n2c(C)nc3ccc(Br)cc3c2=O)c1[N+](=O)[O-] [Compound 8f]", "Target Of Assay": "UniProtKB P47989", "pIC50": 5.14}
{"Compound": "Cc1nc2ccc(Br)cc2c(=O)n1/N=C/c1ccc2ccccc2c1 [Compound 8b]", "Target Of Assay": "UniProtKB P47989", "pIC50": 4.59}
{"Compound": "Cc1nc2ccccc2c(=O)n1/N=C/N(C)C [Compound 12]", "Target Of Assay": "UniProtKB P47989", "pIC50": 4.04}
{"Compound": "Cc1ccc2nc(SCc3ccc(Cl)cc3)n(-c3ccccc3)c(=O)c2c1 [Compound 15b]", "Target Of Assay": "UniProtKB P47989", "pIC50": 4.30}
{"Compound": "Cc1nc2ccccc2c(=O)n1NC(=O)OCC(C)C [Compound 10]", "Target Of Assay": "UniProtKB P47989", "pIC50": 3.96}
{"Compound": "COc1cccc(/C=N/n2c(C)nc3ccccc3c2=O)c1[N+](=O)[O-] [Compound 8e]", "Target Of Assay": "UniProtKB P47989", "pIC50": 3.99}

###

# Target Of Assay: trypsin (Bos taurus)
# Construct: gene PRSS1
# Sequence (P00760 24-246): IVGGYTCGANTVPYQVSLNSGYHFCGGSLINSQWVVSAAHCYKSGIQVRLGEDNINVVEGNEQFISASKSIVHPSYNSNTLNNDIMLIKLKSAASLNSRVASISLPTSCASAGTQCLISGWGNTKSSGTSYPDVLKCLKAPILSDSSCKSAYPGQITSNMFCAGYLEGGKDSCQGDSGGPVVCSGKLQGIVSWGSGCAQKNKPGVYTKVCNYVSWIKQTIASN
# Assay: In vitro antiprotease activity
# Type: biochemical
# Assay Conditions: 15 min preincubation; read-out: mean IC50 against Trypsin (converted)
Could you please mark true for values of IC50 below 30 µM and false for values at or above it?

{"Compound": "O=c1c2ccccc2nc(SCc2ccc(Cl)cc2)n1-c1ccccc1 [Compound 15a]", "Cat": "false"}
{"Compound": "Cc1nc2ccccc2c(=O)n1/N=C/c1ccc(-c2ccccn2)cc1 [Compound 8c]", "Cat": "false"}
{"Compound": "COc1cccc(/C=N/n2c(C)nc3ccccc3c2=O)c1[N+](=O)[O-] [Compound 8e]", "Cat": "true"}
{"Compound": "Cc1nc2ccccc2c(=O)n1/N=C/c1ccc(-c2ccccc2)cc1 [Compound 8i]", "Cat": "false"}
{"Compound": "COc1cc(-n2c(C)nc3ccc(F)cc3c2=O)cc(OC)c1OC [Compound 5b]", "Cat": "true"}
{"Compound": "Cc1nc2ccc(Br)cc2c(=O)n1/N=C/c1ccc(-c2ccccn2)cc1 [Compound 8d]", "Cat": "false"}
{"Compound": "Cc1ccc2nc(SCc3ccc(Cl)cc3)n(-c3ccccc3)c(=O)c2c1 [Compound 15b]", "Cat": "true"}
{"Compound": "Cc1nc2ccccc2c(=O)n1/N=C/c1ccc(C#N)cc1 [Compound 8g]", "Cat": "false"}
{"Compound": "Cc1nc2ccc(Br)cc2c(=O)n1/N=C/c1ccc(-c2ccccc2)cc1 [Compound 8j]", "Cat": "true"}
{"Compound": "Cc1nc2ccccc2c(=O)n1/N=C/N(C)C [Compound 12]", "Cat": "false"}
{"Compound": "Cc1cccc(C)c1NC(=O)CSc1nc2ccccc2c(=O)n1-c1ccccc1 [Compound 15c]", "Cat": "false"}

###

# Target Of Assay: Apis mellifera bee venom (AmPLA2) (Apis mellifera, UniProt P00630)
# Sequence (P00630 34-167 limits assumed): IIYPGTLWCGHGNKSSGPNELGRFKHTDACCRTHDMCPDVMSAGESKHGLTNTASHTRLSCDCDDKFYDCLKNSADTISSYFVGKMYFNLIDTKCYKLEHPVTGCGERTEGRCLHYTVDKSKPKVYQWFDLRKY

{"Molecule": "COc1cccc(/C=N/n2c(C)nc3ccc(Br)cc3c2=O)c1[N+](=O)[O-]", "IC50": "10.1 µM"}
{"Molecule": "Cc1nc2ccccc2c(=O)n1NC(=O)OCC(C)C", "IC50": "16.3 µM"}
{"Molecule": "Cc1ccc2nc(SCC(=O)Nc3cccc(C)c3C)n(-c3ccccc3)c(=O)c2c1 [Compound 15f]", "IC50": "86.7 µM"}
{"Molecule": "Cc1nc2ccccc2c(=O)n1/N=C/c1ccc2ccccc2c1", "IC50": "98.9 µM"}
{"Molecule": "Cc1ccc2nc(SCC(=O)Nc3c(C)cccc3C)n(-c3ccccc3)c(=O)c2c1 [Compound 15d]", "IC50": "14 µM"}
{"Molecule": "Cc1nc2ccccc2c(=O)n1/N=C/N(C)C", "IC50": "122 µM"}
{"Molecule": "Cc1nc2ccc(Br)cc2c(=O)n1/N=C/c1ccc(-c2ccccc2)cc1", "IC50": "45.4 µM"}
{"Molecule": "O=c1c2ccccc2nc(SCc2ccc(Cl)cc2)n1-c1ccccc1 [Compound 15a]", "IC50": "17.2 µM"}
{"Molecule": "COc1cc(-n2c(C)nc3ccc(Cl)cc3c2=O)cc(OC)c1OC", "IC50": "12.6 µM"}

###

As shown below, each of these compounds has a reported melting point value.

{"Compound": "Cc1ccc2nc(SCc3ccc(Cl)cc3)n(-c3ccccc3)c(=O)c2c1 [Compound 15b]", "melting point": "164 to 165 °C"}
{"Compound": "COc1cccc(/C=N/n2c(C)nc3ccc(Br)cc3c2=O)c1[N+](=O)[O-] [Compound 8f]", "melting point": "234 to 235 °C"}
{"Compound": "Cc1nc2ccc(Br)cc2c(=O)n1/N=C/c1ccc(-c2ccccc2)cc1 [Compound 8j]", "melting point": "208 to 210 °C"}
{"Compound": "Cc1nc2ccc(Br)cc2c(=O)n1/N=C/c1ccc(-c2ccccn2)cc1 [Compound 8d]", "melting point": "209 to 210 °C"}
{"Compound": "Cc1nc2ccccc2c(=O)n1/N=C/c1ccc(-c2ccccn2)cc1 [Compound 8c]", "melting point": "188 to 190 °C"}
{"Compound": "COc1cc(-n2c(C)nc3ccc(F)cc3c2=O)cc(OC)c1OC [Compound 5b]", "melting point": "193 to 195 °C"}
{"Compound": "Cc1nc2ccccc2c(=O)n1NC(=O)OCC(C)C [Compound 10]", "melting point": "168 to 170 °C"}
{"Compound": "Cc1ccc2nc(SCC(=O)Nc3cccc(C)c3C)n(-c3ccccc3)c(=O)c2c1 [Compound 15f]", "melting point": "218 to 220 °C"}
{"Compound": "Cc1ccc2nc(SCC(=O)Nc3c(C)cccc3C)n(-c3ccccc3)c(=O)c2c1 [Compound 15d]", "melting point": "229 to 230 °C"}
{"Compound": "COc1cccc(/C=N/n2c(C)nc3ccccc3c2=O)c1[N+](=O)[O-] [Compound 8e]", "melting point": "178 to 180 °C"}
{"Compound": "COc1cc(-n2c(C)nc3ccccc3c2=O)cc(OC)c1OC [Compound 5a]", "melting point": "88 to 90 °C"}
{"Compound": "Cc1cccc(C)c1NC(=O)CSc1nc2ccccc2c(=O)n1-c1ccccc1 [Compound 15c]", "melting point": "218 to 220 °C"}
{"Compound": "COc1cc(-n2c(C)nc3ccc(Cl)cc3c2=O)cc(OC)c1OC [Compound 5c]", "melting point": "188 to 190 °C"}
{"Compound": "Cc1nc2ccccc2c(=O)n1/N=C/N(C)C [Compound 12]", "melting point": "100 to 102 °C"}
{"Compound": "Cc1nc2ccc(Br)cc2c(=O)n1/N=C/c1ccc(C#N)cc1 [Compound 8h]", "melting point": "228 to 230 °C"}
{"Compound": "Cc1nc2ccccc2c(=O)n1/N=C/c1ccc(C#N)cc1 [Compound 8g]", "melting point": "222 to 224 °C"}

###

# Target Of Assay: Naja mossambica mossambica sPLA2 (NmPLA2)
# Assay: In vitro antiphospholipase activity
# Format: biochemical
# Assay Conditions: 20 min preincubation, lecithin substrate, pH 7.6

{"Compound": "Cc1cccc(C)c1NC(=O)CSc1nc2ccccc2c(=O)n1-c1ccccc1 [Compound 15c]", "Target Of Assay": "Naja mossambica mossambica sPLA2 (NmPLA2)", "mean IC50 against NmPLA2": "28.50 ± 2.12 µg/mL"}
{"Compound": "Cc1cccc(NC(=O)CSc2nc3ccccc3c(=O)n2-c2ccccc2)c1C [Compound 15e]", "Target Of Assay": "Naja mossambica mossambica sPLA2 (NmPLA2)", "mean IC50 against NmPLA2": "11.00 ± 1.41 µg/mL"}
{"Compound": "Cc1nc2ccc(Br)cc2c(=O)n1/N=C/c1ccc(-c2ccccc2)cc1", "Target Of Assay": "Naja mossambica mossambica sPLA2 (NmPLA2)", "mean IC50 against NmPLA2": "16.40 ± 0.85 µg/mL"}
{"Compound": "Cc1nc2ccccc2c(=O)n1/N=C/c1ccc(-c2ccccc2)cc1", "Target Of Assay": "Naja mossambica mossambica sPLA2 (NmPLA2)", "mean IC50 against NmPLA2": "11.00 ± 1.41 µg/mL"}

Sourced from paper PMC6407576
